- testProtocol: qHTS assay for small molecules that induce genotoxicity in human embryonic kidney cells expressing luciferase-tagged ATAD5 - cell viability (AID 651634); further: nearly all actives have a fitted effect of over 25% in size; further: potency means the concentration at half of the fitted maximal effect
- measurementSetup: HEK293T ATAD5-luc cells viability, CellTiter-Fluor, 15.5 h; series mostly up to 83.3 µM
Results filed as inconclusive are left out. Active and inactive are the calls of the source. The call rests on the fitted dose curve.
readoutKind: Potency

Illustrative cases are given below, each with its answer.
NNC(=O)c1ccccc1 :: inactive
C[C@]12CC[C@@H]3c4ccc(OC(=O)N(CCCl)CCCl)cc4CC[C@H]3[C@@H]1CC[C@@H]2O :: inactive
CC(=O)OC1(c2ccccc2)CCN(CCc2ccccc2)CC1 :: inactive
Nc1ccccc1C(=O)OC/C=C/c1ccccc1 :: inactive
CCOCCOC(C)=O :: inactive
COc1cc(N)c(Cl)cc1C(=O)NC1CN2CCC1CC2 (stereo not given) :: inactive
O=C(CBr)c1ccc(O)cc1 :: inactive
O=C1NCN(c2ccccc2)C12CCN(CC1COc3ccccc3O1)CC2 (stereo not given) :: inactive

Recorded Potency for CN(C)CCc1c[nH]c2ccc(O)cc12 , please?
inactive

Recorded Potency for CN(C)c1ccc(N=Nc2ccccc2)cc1 , please?
68.7 µM (active)

Recorded Potency for N#CNC#N , please?
inactive

Recorded Potency for N#CC(Cl)Cl , please?
inactive

Recorded Potency for CC(Cc1ccc(C(C)(C)C)cc1)CN1C[C@@H](C)O[C@@H](C)C1 (stereo not given in full) , please?
inactive

Recorded Potency for CCN(CC)c1c([N+](=O)[O-])cc(C(F)(F)F)c(N)c1[N+](=O)[O-] , please?
inactive

Recorded Potency for O=[N+]([O-])c1ccc2ccc3cccc4ccc1c2c34 , please?
inactive
